What Kd was measured for each of the following?
Biological target: T1, recombinant his-tag human LAG3-ECD protein (human, UniProt P18627 23-450)
T1 construct: extracellular domain; not shown: his tag
T1 sequence (looked up): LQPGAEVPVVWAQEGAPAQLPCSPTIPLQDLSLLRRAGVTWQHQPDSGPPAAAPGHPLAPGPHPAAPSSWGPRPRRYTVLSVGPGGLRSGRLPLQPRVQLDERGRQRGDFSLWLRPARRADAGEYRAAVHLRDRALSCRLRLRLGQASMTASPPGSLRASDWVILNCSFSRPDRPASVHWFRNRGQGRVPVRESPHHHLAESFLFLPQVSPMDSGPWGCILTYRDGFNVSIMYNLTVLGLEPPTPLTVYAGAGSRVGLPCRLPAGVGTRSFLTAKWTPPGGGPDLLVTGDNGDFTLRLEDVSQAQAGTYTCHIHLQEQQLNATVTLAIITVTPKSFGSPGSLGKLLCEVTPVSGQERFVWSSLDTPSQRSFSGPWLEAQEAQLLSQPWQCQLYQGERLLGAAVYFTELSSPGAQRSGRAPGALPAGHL
Experiment: SPR Biacore T200, antibody captured by anti-human Fc, LAG3-ECD-his injected
I'd appreciate it if you included the unit after the number.

Which value of Kd has been reported for NLAG3-HDB169-S136 (antibody, human IgG1, V domains shown, Short label tied by its unique suffix) VH: QVQLVQSGAEVKKPGSSVKVSCKASGGTFSSYAISWVRQAPGQGLEWMGGIIPIFGTANYAQKFQGRVTITADESTSTAYMELSSLRSEDTAVYYCTRGQDSTWYSSFDYWGQGTLVTVSS VL: AIRMTQSPSSLSASVGDRVTITCRASQSISSYLNWYQQKPGKAPNLLIYAVSTLQSGVPSRFSGSGSGTVFTLTISSLQPEDFATYFCQQGNSFPLTFGGGTKVEIKR in the records?
0.104 nM

Same for NLAG3-HDB169-S128 (antibody, human IgG1, V domains shown, Short label tied by its unique suffix) VH: QVQLVQSGAEVKKPGSSVKVSCKASGGTFSSYAISWVRQAPGQGLEWMGGIIPIFGTANYAQKFQGRVTITADESTSTAYMELSSLRSEDTAVYYCARDAGPVGYYGMDVWGQGTMVTVSS VL: AIQMTQSPSSLSASVGDRVTITCRASQGISSWLAWYQQKPGKAPKLLIYAASSLQSGVPSRFSGSGSGTDFTLTISRLQPEDFATYYCQQAKSFPLTFGGGTKVEIKR
0.815 nM

Same for NLAG3-HDB169-S120 (antibody, human IgG1, V domains shown, Short label tied by its unique suffix) VH: QVQLVQSGAEVKKPGSSVKVSCKASGGTFSSYAISWVRQAPGQGLEWMGGIIPIFGTANYAQKFQGRVTITADESTSTAYMELSSLRSEDTAVYYCARSGDRYDFWSGYWGQGTLVTVSS VL: EIVLTQSPSSVSASVGDRVTITCRASRGISSWLAWYQQKPGKAPKLLIYAASTLQSGVPSRFSGSGSGTDFTLTISSLQPEDFATYYCQQAKSFPLTFGGGTKVEIKR
1.88 nM

Same for NLAG3-HDB169-S119 (antibody, human IgG1, V domains shown, Short label tied by its unique suffix) VH: QVQLVQSGAEVKKPGSSVKVSCKASGGTFSSYAISWVRQAPGQGLEWMGGIIPIFGTANYAQKFQGRVTITADESTSTAYMELSSLRSEDTAVYYCAASTLRVPNPPYWGQGTLVTVSS VL: EIVLTQSPGTLSLSPGERATLSCRASQSVSSYLAWYQQKPGQAPRLLIYGISSRATGIPDRFSGSGSGTDFTLTISSLQPEDFATYYCQQANNFPLTFGGGTKLEIKR
0.00687 nM

Reference for the values: patent US20220363763A1
